target: Aβ42 (Homo sapiens, UniProt P05067); test: Grating-Coupled Interferometry (GCI) binding to immobilized Aβ42; details: GCI fit quality parameter
Sequence (P05067 672-713 limits assumed): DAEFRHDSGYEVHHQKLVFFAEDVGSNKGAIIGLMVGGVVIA
Readout kind: χ^2 (average of the squared residuals, fitting confidence)

Recorded χ^2 (average of the squared residuals, fitting confidence) for C[n+]1ccc(-c2c3nc(c(-c4cc[n+](C)cc4)c4ccc([nH]4)c(-c4cc[n+](C)cc4)c4nc(c(-c5ccc(C(=O)O)cc5)c5ccc2[nH]5)C=C4)C=C3)cc1.[Cl-].[Cl-].[Cl-] [MCPTPyP, reference compound] with Aβ42 (Homo sapiens, UniProt P05067), please? 0.63±0.06

###

Give χ^2 (average of the squared residuals, fitting confidence) for every item shown.
biological target: Aβ42 (Homo sapiens, UniProt P05067); test: Grating-Coupled Interferometry (GCI) binding to immobilized Aβ42; details: GCI fit quality parameter
Square brackets hold non-standard residues; d marks the D form. Peptide text beside a SMILES is read from it. Lys(N3) = [N-]=[N+]=NCCCC[C@H](N)C(=O)O
Numbers only.

Compound: COC(=O)[C@H](Cc1cn(CCCC[C@H](NC(=O)CNC(C)=O)C(=O)N2CCC[C@H]2C(=O)NCC(=O)N[C@@H](CCCCN)C(=O)N[C@@H](CC(C)C)C(=O)N[C@H](C(=O)N[C@@H](Cc2ccccc2)C(=O)N[C@@H](Cc2ccccc2)C(N)=O)C(C)C)nn1)NC(=O)c1ccc(-c2c3nc(c(-c4cc[n+](C)cc4)c4ccc([nH]4)c(-c4cc[n+](C)cc4)c4nc(c(-c5cc[n+](C)cc5)c5ccc2[nH]5)C=C4)C=C3)cc1 [Zn‐Ph‐Pep]
Recorded result: 0.49

List χ^2 (average of the squared residuals, fitting confidence) for every entry below, keeping the order given.
1. CC(=O)NCC(=O)N[C@@H](CCCCN=[N+]=[N-])C(=O)N1CCC[C@H]1C(=O)NCC(=O)N[C@@H](CCCCN)C(=O)N[C@@H](CC(C)C)C(=O)N[C@H](C(=O)N[C@@H](Cc1ccccc1)C(=O)N[C@@H](Cc1ccccc1)C(N)=O)C(C)C [Pep] (Ac-G[Lys(N3)]PGKLVFF-NH2)
2. COC(=O)[C@H](Cc1cn(CCCC[C@H](NC(=O)CNC(C)=O)C(=O)N2CCC[C@H]2C(=O)NCC(=O)N[C@@H](CCCCN)C(=O)N[C@@H](CC(C)C)C(=O)N[C@H](C(=O)N[C@@H](Cc2ccccc2)C(=O)N[C@@H](Cc2ccccc2)C(N)=O)C(C)C)nn1)NC(=O)c1ccc(-c2c3nc(c(-c4cc[n+](C)cc4)c4ccc([nH]4)c(-c4cc[n+](C)cc4)c4nc(c(-c5cc[n+](C)cc5)c5ccc2[nH]5)C=C4)C=C3)cc1 [Ph‐Pep]
3. COC(=O)[C@H](Cc1cn(CCCC[C@H](NC(=O)CNC(C)=O)C(=O)N2CCC[C@H]2C(=O)NCC(=O)N[C@@H](CCCCN)C(=O)N[C@@H](CC(C)C)C(=O)N[C@H](C(=O)N[C@@H](Cc2ccccc2)C(=O)N[C@@H](Cc2ccccc2)C(N)=O)C(C)C)nn1)NC(=O)c1ccc(-c2c3nc(c(-c4cc[n+](C)cc4)c4ccc([nH]4)c(-c4cc[n+](C)cc4)c4nc(c(-c5cc[n+](C)cc5)c5ccc2[nH]5)C=C4)C=C3)cc1 [Cu‐Ph‐Pep]

[0.79, 0.71, 0.76]
